- system_under_test: Multidrug resistance-associated protein 1 (MRP1) (Homo sapiens, UniProt P33527)
- Sequence (P33527 whole entry): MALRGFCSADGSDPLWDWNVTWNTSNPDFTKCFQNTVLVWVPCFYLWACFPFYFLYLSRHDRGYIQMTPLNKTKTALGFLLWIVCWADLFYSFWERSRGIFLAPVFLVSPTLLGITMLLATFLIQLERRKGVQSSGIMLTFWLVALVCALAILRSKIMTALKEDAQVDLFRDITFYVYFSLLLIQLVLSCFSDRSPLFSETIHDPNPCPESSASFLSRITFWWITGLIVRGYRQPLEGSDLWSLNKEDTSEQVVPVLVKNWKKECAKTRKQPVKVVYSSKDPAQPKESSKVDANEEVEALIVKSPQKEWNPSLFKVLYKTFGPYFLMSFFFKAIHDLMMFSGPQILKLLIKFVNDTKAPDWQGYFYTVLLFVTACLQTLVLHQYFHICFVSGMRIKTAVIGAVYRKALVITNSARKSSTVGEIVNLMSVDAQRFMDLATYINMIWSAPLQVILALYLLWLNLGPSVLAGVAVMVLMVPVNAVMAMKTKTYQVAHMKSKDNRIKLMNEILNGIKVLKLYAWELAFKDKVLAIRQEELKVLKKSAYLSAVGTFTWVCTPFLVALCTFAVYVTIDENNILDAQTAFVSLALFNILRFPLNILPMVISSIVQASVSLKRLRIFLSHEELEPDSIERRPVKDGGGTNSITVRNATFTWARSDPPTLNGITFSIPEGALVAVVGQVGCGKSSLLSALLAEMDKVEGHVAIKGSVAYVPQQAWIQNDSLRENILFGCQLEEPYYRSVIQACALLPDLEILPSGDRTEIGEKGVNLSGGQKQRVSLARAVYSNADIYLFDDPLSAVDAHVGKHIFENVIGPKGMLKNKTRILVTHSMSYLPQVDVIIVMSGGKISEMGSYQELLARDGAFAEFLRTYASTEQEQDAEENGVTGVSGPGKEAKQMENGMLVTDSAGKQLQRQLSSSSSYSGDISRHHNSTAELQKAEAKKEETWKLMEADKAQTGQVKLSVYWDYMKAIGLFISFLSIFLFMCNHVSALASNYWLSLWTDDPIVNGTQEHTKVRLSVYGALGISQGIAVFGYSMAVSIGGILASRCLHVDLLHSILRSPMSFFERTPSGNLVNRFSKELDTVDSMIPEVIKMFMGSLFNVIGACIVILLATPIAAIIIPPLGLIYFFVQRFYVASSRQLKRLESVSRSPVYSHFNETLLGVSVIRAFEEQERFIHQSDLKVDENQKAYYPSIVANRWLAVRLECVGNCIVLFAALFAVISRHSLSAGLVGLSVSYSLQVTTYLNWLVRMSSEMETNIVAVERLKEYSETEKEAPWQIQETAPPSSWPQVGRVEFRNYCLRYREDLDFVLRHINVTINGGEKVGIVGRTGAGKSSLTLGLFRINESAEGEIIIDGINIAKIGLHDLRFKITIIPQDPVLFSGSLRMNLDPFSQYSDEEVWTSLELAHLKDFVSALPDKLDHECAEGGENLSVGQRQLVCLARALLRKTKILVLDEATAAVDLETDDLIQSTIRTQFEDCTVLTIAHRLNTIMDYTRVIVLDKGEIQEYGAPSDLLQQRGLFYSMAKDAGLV
- method_notes: TP_TRANSPORTER: inhibition of DNP-SG uptake (DNP-SG: 0.01 uM, Idarbicin: 10 uM) in membrane vesicles from GLC4/ADR cells
- Type: functional, cell membranes, GLC-4/ADR, Membrane vesicle
- Parameters: scale not given: the % may be the effect or the level left
- study_conditions: probe DNP-SG, read-out: Activity
endpoint: activity at 10 µM (%)
Numbers only, in %.

Req: Look up activity at 10 µM for this molecule: CC(=O)[C@]1(O)Cc2c(O)c3c(c(O)c2[C@@H](O[C@H]2C[C@H](N)[C@H](O)[C@H](C)O2)C1)C(=O)c1ccccc1C3=O
Resp: 52

====

- system_under_test: Multidrug resistance-associated protein 1 (MRP1) (Homo sapiens, UniProt P33527)
- method_notes: TP_TRANSPORTER: inhibition of DNP-SG uptake (DNP-SG: 0.01 uM, Calcein-AM: 10 uM) in membrane vesicles from GLC4/ADR cells
- Format: functional, cell membranes, GLC-4/ADR, Membrane vesicle
- Set-up: scale not given: the % may be the effect or the level left
- study_conditions: probe DNP-SG, read-out: Activity
endpoint: activity at 10 µM (%)
Answers are plain numbers, in %.

Req: Look up activity at 10 µM for this molecule: CC(=O)OCOC(=O)CN(CC(=O)OCOC(C)=O)Cc1c(OC(C)=O)ccc2c1Oc1c(ccc(OC(C)=O)c1CN(CC(=O)OCOC(C)=O)CC(=O)OCOC(C)=O)C21OC(=O)c2ccccc21
Resp: 44

====

- system_under_test: Multidrug resistance-associated protein 1 (MRP1) (Homo sapiens)
- method_notes: TP_TRANSPORTER: inhibition of DNP-SG uptake (DNP-SG: 0.01 uM, VP-16: 10 uM) in membrane vesicles from GLC4/ADR cells
- Format: functional, cell membranes, GLC-4/ADR, Membrane vesicle
- Set-up: scale not given: the % may be the effect or the level left
- study_conditions: probe DNP-SG, read-out: Activity
endpoint: activity at 10 µM (%)
One number for each entry, in %.

Req: What is its activity at 10 µM for Multidrug resistance-associated protein 1 (MRP1) (Homo sapiens)? Entry: COc1cc([C@@H]2c3cc4c(cc3[C@@H](O[C@@H]3O[C@@H]5CO[C@@H](C)O[C@H]5[C@H](O)[C@H]3O)[C@H]3COC(=O)[C@H]23)OCO4)cc(OC)c1O [ETOPOSIDE]
Resp: 50

====

- system_under_test: Multidrug resistance-associated protein 1 (MRP1) (Homo sapiens, UniProt P33527)
- method_notes: TP_TRANSPORTER: inhibition of DNP-SG uptake (DNP-SG: 0.01 uM, Calcein: 500 uM) in membrane vesicles from GLC4/ADR cells
- Assay type: functional, cell membranes, GLC-4/ADR, Membrane vesicle
- Design: scale not given: the % may be the effect or the level left
- study_conditions: probe DNP-SG, read-out: Activity
endpoint: activity at 500 µM (%)
One number for each entry, in %.

Req: What is its activity at 500 µM for Multidrug resistance-associated protein 1 (MRP1) (Homo sapiens, UniProt P33527)? Entry: O=C(O)CN(CC(=O)O)Cc1cc2c(cc1O)Oc1cc(O)c(CN(CC(=O)O)CC(=O)O)cc1C21OC(=O)c2ccccc21
Resp: 40

Every entry's value here was drawn from ChEMBL document CHEMBL2074115.
